B1: CHCHD6 (parent)
chain: MYKLSSEQFHEAASKMESTIKPRR

variants of: B1; test: protein stability index of a GFP-peptide fusion (GPS, HEK-293T) (PSI 1-6); higher = more stable; conditions: c terminus: a fixed tail appended;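 also: lentivirally expressed fusions sorted by FACS into six bins by GFP to DsRed ratio, PSI derived from sequencing read proportions per bin multiplied by bin number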
experimentalEndpoint: protein stability index
Could you respond with only the numeric value?

**Query** // returns reported protein stability index for input MYKLSSEQFHEAAYKMESTIKPRR [S14Y]
**Result** 2.83

**Query** Similarly, MYKLSSEQFHEAASKMESDIKPRR [T19D] ?
**Result** 3.49

**Query** Similarly, MYKLSSEQFHEAASHMESTIKPRR [K15H] ?
**Result** 3.75

**Query** Similarly, MYKLSSEQFHEYASKMESTIKPRR [A12Y] ?
**Result** 3.39

**Query** Similarly, MYKLSSEQFHVAASKMESTIKPRR [E11V] ?
**Result** 3.4

**Query** Similarly, MYKLSSEQFHEAASKMESTIKPDR [R23D] ?
**Result** 4.44

**Query** Similarly, MYKLSSEQFHEAASKNESTIKPRR [M16N] ?
**Result** 4.17

**Query** Similarly, MYKLSSEQFHEAADKMESTIKPRR [S14D] ?
**Result** 3.61

**Query** Similarly, MYKLSSEQFHEAASKIESTIKPRR [M16I] ?
**Result** 3.53

**Query** Similarly, MYKLSSEQFHEAASKMESTIKHRR [P22H] ?
**Result** 3.91

**Query** Similarly, MYKLSSEQFHEHASKMESTIKPRR [A12H] ?
**Result** 4.12

**Query** Similarly, MYKLPSEQFHEAASKMESTIKPRR [S5P] ?
**Result** 3.17

**Query** Similarly, MYKLSSEQFHEAWSKMESTIKPRR [A13W] ?
**Result** 2.95

**Query** Similarly, MYKLSSEQFHEAASKMESEIKPRR [T19E] ?
**Result** 3.89

**Query** Similarly, MYKLSSENFHEAASKMESTIKPRR [Q8N] ?
**Result** 3.86

**Query** Similarly, MYKLSSEQFHEAASKMESTIWPRR [K21W] ?
**Result** 2.48

**Query** Similarly, MYKLSSEQFHEAASKMESKIKPRR [T19K] ?
**Result** 3.77

**Query** Similarly, MYKLSSEQFHEAASKMESTIKPER [R23E] ?
**Result** 4.14

**Query** Similarly, MYKLSSEQFHEAASKMESTTKPRR [I20T] ?
**Result** 4.25

**Query** Similarly, MYKLSSEQFHIAASKMESTIKPRR [E11I] ?
**Result** 3.34

**Query** Similarly, RYKLSSEQFHEAASKMESTIKPRR [M1R] ?
**Result** 4.33

**Query** Similarly, MYKLSSEQFHEAASKMGSTIKPRR [E17G] ?
**Result** 4.03
